B1: HDV Ribozyme (parent)
chain: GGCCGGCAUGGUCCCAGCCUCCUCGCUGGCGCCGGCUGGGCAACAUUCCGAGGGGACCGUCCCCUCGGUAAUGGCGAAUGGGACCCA

- Variants of: B1
- Method Summary: self-cleavage, relative activity (ratio to wild type); higher = more cleavage; co-transcriptional
Observed Property: self-cleavage

G5A C7G
0.0875
G40U G55U
0.621
G2U C75A
0
G5C C64G
0.0462
G29U A78U
0.0287
C4G C64U
0.214
C3G C58A
0.842
C41U C48U
1.02
A8G G10C
0.665
G6U U60C
0.525
U12G G74U
0.453
C22A C57A
0.208
C64G A71C
0.68
G35U C85G
0.356
G2U G82C
0.112
G29A G53C
0.134
C15G G38U
0
C3U U60G
0.591
G6A U65C
0.554
C14G G59A
0.962
G35C A56U
0.232
C7A C32G
0
A8G A56U
0.831
G25U G35C
0.0707
G5U C41G
0.111
U23A G80C
0.101
C44U G53C
0.658
U12A G34C
0.208
A8C C63A
0.852
